- targetOfAssay: HIV Env, isolate CNE20 (HIV)
- experiment: cell-based or functional assay

| binder | IC80 (µg/ml) with constrains [µg/mL] |
| --- | --- |
| PGDM1400 (antibody, V domains shown) VH: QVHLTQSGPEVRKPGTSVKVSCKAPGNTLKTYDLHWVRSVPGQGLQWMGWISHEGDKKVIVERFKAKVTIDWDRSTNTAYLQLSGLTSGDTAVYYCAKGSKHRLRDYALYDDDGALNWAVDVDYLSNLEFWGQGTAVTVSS VL: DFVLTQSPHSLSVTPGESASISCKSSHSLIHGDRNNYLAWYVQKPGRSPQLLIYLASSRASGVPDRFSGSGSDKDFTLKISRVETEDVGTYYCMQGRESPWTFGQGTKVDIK | 0.021 |
| ePGDM9 (antibody, V domains shown) VH: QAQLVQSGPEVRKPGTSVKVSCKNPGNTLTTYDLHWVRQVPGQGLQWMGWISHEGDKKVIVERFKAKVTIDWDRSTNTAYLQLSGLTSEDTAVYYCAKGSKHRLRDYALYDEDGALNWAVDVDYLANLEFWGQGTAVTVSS VL: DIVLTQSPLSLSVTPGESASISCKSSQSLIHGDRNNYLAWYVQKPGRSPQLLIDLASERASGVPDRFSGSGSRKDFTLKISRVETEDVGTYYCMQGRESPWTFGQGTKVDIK | 0.008 |
| ePGDM5 (antibody, V domains shown) VH: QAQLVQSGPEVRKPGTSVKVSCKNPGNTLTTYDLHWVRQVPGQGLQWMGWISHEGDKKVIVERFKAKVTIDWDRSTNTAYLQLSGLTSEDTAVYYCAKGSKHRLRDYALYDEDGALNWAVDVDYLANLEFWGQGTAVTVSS VL: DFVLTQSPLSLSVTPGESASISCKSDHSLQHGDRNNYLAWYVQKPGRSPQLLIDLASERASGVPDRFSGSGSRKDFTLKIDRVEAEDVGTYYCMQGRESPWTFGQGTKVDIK | 0.015 |
